tgt: ASK1 (Homo sapiens, UniProt Q99683)
Sequence (Q99683 whole entry, species assumed): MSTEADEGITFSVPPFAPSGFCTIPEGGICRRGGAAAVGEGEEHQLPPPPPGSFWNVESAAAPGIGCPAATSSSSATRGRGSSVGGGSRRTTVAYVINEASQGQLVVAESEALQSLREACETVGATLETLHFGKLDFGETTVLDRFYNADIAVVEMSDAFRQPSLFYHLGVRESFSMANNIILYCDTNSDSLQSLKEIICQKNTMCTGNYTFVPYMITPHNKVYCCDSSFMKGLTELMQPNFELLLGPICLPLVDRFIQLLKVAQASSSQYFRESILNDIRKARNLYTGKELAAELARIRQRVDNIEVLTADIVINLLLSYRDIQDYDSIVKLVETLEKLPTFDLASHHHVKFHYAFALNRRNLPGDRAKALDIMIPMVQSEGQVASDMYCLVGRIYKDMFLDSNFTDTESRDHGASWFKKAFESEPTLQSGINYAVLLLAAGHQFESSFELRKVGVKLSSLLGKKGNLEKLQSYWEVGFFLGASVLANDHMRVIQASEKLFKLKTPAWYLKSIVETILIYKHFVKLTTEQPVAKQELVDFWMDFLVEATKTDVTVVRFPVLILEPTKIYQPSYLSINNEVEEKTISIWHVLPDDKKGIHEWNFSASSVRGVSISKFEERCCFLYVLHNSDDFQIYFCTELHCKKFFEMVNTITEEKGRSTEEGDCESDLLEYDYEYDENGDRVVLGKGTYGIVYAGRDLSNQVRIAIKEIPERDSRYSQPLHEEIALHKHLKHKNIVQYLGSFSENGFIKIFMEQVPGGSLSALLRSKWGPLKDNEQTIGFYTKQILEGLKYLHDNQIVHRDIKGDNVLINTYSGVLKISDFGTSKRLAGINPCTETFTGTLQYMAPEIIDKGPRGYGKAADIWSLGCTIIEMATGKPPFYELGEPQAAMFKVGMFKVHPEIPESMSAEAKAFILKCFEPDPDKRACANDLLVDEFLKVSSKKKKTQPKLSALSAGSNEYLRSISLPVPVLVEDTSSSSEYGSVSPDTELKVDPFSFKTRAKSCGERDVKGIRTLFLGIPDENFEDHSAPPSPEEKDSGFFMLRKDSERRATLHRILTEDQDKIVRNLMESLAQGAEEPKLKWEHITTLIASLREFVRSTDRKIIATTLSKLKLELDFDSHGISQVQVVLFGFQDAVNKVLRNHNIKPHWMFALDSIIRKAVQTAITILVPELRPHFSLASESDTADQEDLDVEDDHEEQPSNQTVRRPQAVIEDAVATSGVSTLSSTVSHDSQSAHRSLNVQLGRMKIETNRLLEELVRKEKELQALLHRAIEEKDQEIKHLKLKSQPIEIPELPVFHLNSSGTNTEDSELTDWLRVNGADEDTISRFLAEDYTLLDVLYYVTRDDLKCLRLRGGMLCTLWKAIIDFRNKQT
method: Kinase profiling ASK1
Type: biochemical
applied_conditions: 100 micromolar inhibitor concentration; 100 is no change
Classify by measured residual kinase activity, ASK1: fulfilled if it is equal to or exceeds 70, not fulfilled if it is smaller.

Examples with answers:
O=C(Nc1nc2cc(O)ccc2s1)c1cccnc1 not fulfilled
CC(=O)Nc1nc2cc(C)ccc2s1 not fulfilled
O=C(Nc1nc2ccc(O)cc2s1)c1ccccc1 not fulfilled
O=C(Nc1nc2ccc(O)cc2s1)c1ccncc1 not fulfilled
O=C(Nc1nc2ccc(O)cc2s1)c1cccnc1 not fulfilled

Quick check, residual kinase activity, ASK1 >= 70? O=C(Nc1nc2cc(O)ccc2s1)c1ccccn1
fulfilled

Quick check, residual kinase activity, ASK1 >= 70? CC(=O)Nc1nc2ccccc2s1
not fulfilled

Quick check, residual kinase activity, ASK1 >= 70? O=C(Nc1nc2cc(O)ccc2s1)c1ccncc1
fulfilled

---

tgt: IRAK4 (Homo sapiens, UniProt Q9NWZ3)
Sequence (Q9NWZ3 whole entry, species assumed): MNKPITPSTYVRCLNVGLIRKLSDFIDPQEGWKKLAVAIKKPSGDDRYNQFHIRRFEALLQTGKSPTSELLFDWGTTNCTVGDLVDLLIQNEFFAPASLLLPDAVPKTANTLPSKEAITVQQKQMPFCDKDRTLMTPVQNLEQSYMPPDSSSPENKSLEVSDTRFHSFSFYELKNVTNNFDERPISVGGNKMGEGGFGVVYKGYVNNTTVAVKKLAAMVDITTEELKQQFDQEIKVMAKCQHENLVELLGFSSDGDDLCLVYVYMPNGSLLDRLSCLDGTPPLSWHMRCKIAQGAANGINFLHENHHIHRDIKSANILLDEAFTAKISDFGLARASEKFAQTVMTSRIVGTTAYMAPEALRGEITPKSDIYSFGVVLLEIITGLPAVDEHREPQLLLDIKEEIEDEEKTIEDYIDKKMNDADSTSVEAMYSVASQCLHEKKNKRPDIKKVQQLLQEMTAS
method: Kinase profiling IRAK4
Type: biochemical
applied_conditions: 100 micromolar inhibitor concentration; 100 is no change; read-out: residual kinase activity, IRAK4
attribute_measured: remaining activity at 100 µM (%)
One number for each entry, in %.

COc1ccc2sc(NC(C)=O)nc2c1 52
CC(=O)Nc1nc2cc(C(F)(F)F)ccc2s1 60
CC(=O)Nc1nc2ccc(C#N)cc2s1 10

Okay, here is my list. What is remaining activity at 100 µM for each of these?
1. CC(=O)Nc1nc2ccc(O)cc2s1
2. CC(=O)Nc1nc2cc(F)ccc2s1
3. CC(=O)Nc1nc2ccc(C(F)(F)F)cc2s1
4. CC(=O)Nc1nc2ccc([N+](=O)[O-])cc2s1

13
43
12
8

---

tgt: TLK1 (Homo sapiens, UniProt Q9UKI8)
Sequence (Q9UKI8 1-766): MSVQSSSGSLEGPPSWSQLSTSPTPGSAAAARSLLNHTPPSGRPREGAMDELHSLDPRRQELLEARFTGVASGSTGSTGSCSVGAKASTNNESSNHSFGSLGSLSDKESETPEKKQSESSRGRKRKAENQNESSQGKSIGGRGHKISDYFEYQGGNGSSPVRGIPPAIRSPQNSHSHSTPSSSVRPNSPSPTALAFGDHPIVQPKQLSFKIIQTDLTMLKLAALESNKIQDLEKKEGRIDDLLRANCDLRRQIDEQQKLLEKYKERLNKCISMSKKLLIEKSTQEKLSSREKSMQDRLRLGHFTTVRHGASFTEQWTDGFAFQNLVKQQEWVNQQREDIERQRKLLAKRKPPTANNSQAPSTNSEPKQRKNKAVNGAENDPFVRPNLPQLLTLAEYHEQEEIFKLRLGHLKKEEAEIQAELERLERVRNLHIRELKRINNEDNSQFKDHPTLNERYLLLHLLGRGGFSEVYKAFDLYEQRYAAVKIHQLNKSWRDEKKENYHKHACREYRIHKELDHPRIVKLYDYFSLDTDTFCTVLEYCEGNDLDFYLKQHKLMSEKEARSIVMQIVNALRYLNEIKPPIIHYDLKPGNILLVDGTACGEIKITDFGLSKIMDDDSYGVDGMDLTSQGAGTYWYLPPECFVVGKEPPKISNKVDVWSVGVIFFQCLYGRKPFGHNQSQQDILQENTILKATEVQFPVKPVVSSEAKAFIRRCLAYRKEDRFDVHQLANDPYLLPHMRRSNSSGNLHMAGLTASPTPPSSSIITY
method: Kinase profiling TLK1
Type: biochemical
applied_conditions: 100 micromolar inhibitor concentration; 100 is no change
Classify by measured residual kinase activity, TLK1: MET if it is equal to or exceeds 100, NOT MET if it is smaller.

O=C(Nc1nc2ccc(O)cc2s1)c1cccnc1 NOT MET
O=C(Nc1nc2cc(O)ccc2s1)c1ccncc1 NOT MET
O=C(Nc1nc2ccc(O)cc2s1)c1ccccn1 NOT MET
CC(=O)Nc1nc2ccccc2s1 NOT MET
O=C(Nc1nc2ccc(O)cc2s1)c1ccccc1 NOT MET

API: the following record is the query input.
Quick check, residual kinase activity, TLK1 >= 100? CC(=O)Nc1nc2cc(C)ccc2s1
MET

---

tgt: GCK (Homo sapiens, UniProt Q12851)
Sequence (Q12851 whole entry): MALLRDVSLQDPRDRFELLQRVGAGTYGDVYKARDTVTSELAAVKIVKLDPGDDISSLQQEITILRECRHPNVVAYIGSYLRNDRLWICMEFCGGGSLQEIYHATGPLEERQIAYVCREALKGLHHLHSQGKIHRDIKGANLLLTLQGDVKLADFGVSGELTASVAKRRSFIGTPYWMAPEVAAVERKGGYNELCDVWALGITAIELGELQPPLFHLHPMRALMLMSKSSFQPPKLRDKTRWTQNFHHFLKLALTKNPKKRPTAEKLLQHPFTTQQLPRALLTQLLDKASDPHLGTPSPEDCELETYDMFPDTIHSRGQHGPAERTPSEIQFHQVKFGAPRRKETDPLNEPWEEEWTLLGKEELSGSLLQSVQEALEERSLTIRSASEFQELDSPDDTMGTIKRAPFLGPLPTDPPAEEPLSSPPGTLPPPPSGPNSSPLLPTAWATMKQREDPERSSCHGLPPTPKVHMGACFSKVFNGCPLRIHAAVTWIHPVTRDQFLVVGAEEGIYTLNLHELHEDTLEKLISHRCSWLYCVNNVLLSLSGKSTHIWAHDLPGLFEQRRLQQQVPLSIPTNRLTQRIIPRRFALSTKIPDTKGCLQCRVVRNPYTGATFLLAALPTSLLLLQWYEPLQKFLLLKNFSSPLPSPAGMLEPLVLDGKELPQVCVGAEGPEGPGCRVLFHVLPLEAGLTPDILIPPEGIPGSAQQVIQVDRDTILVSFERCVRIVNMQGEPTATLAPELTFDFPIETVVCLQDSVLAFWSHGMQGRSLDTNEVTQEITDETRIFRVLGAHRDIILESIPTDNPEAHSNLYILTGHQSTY
method: Kinase profiling GCK
Type: biochemical
applied_conditions: 100 micromolar inhibitor concentration; 100 is no change
attribute_measured: residual kinase activity, GCK
One number for each entry.

compound	attribute_measured	value_observed
CC(=O)Nc1nc2cc(C)ccc2s1 [Compound 03-76]	residual kinase activity, GCK	35
O=C(Nc1nc2ccc(O)cc2s1)c1ccccc1 [Compound 03-60]	residual kinase activity, GCK	4
CC(=O)Nc1nc2ccccc2s1 [Compound 03-32]	residual kinase activity, GCK	39
O=C(Nc1nc2ccc(O)cc2s1)c1cccnc1 [Compound 08-44]	residual kinase activity, GCK	31
O=C(Nc1nc2cc(O)ccc2s1)c1ccncc1 [Compound 03-11]	residual kinase activity, GCK	33
O=C(Nc1nc2ccc(O)cc2s1)c1ccccn1 [Compound 03-12]	residual kinase activity, GCK	29

Okay, here is my list. What is residual kinase activity, GCK for each of these?
1. O=C(Nc1nc2cc(O)ccc2s1)c1cccnc1 [Compound 03-33]
2. O=C(Nc1nc2cc(O)ccc2s1)c1ccccn1 [Compound 03-13]
3. O=C(Nc1nc2ccc(O)cc2s1)c1ccncc1 [Compound 08-42]

1: 25; 2: 39; 3: 27

---

Provide the reported residual kinase activity, CK1γ2 of each item.
tgt: UniProtKB P78368
Sequence (P78368 whole entry): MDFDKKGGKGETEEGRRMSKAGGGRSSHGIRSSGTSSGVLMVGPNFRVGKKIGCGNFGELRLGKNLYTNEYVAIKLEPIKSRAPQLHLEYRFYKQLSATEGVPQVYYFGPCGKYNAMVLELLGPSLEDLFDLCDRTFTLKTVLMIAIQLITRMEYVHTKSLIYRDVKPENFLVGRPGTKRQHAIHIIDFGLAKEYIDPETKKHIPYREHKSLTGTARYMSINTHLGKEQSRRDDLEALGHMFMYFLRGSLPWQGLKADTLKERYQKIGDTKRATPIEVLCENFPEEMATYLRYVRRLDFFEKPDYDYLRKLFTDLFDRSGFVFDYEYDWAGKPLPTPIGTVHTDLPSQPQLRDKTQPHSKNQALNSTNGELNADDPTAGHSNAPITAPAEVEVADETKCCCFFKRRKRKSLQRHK
method: Kinase profiling CK1γ2
Type: biochemical
applied_conditions: 100 micromolar inhibitor concentration; 100 is no change

Worked set:
O=C(Nc1nc2ccc(O)cc2s1)c1ccccn1 57
O=C(Nc1nc2ccc(O)cc2s1)c1cccnc1 20
CC(=O)Nc1nc2ccccc2s1 41
O=C(Nc1nc2cc(O)ccc2s1)c1ccccn1 83
O=C(Nc1nc2ccc(O)cc2s1)c1ccccc1 3

Okay, here is my list. What is residual kinase activity, CK1γ2 for each of these?
1. O=C(Nc1nc2cc(O)ccc2s1)c1ccncc1
2. CC(=O)Nc1nc2cc(C)ccc2s1
3. O=C(Nc1nc2cc(O)ccc2s1)c1cccnc1

81
54
25

Form: compound = O=C(Nc1nc2ccc(O)cc2s1)c1ccncc1 ; residual kinase activity, CK1γ2 = 62

---

Provide the reported residual kinase activity, MAP4K5 of each item.
tgt: MAP4K5 (Homo sapiens)
Sequence (Q9Y4K4 whole entry, species assumed): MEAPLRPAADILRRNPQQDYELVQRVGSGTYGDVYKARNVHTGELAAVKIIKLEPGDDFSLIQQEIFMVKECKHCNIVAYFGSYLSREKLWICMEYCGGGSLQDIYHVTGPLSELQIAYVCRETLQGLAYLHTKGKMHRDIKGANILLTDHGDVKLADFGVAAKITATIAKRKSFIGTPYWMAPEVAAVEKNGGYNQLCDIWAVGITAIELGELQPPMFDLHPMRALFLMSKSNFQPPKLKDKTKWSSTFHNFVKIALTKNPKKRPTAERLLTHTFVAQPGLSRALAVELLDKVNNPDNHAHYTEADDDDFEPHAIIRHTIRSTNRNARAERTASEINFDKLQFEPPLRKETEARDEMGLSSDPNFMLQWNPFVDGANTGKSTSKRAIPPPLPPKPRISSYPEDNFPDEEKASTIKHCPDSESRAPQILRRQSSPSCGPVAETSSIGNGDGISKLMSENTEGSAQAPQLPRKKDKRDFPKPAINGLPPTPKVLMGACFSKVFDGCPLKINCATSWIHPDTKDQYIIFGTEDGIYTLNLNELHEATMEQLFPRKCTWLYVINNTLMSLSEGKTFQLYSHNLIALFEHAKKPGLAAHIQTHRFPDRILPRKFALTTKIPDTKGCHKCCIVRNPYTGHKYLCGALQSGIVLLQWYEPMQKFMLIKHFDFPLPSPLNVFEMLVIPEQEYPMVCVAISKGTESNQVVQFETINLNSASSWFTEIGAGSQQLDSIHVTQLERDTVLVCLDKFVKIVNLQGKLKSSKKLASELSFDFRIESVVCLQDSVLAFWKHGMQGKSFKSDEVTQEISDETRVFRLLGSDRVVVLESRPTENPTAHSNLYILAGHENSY
method: Kinase profiling MAP4K5
Type: biochemical
applied_conditions: 100 micromolar inhibitor concentration; 100 is no change
Give bare numbers.

Worked set:
O=C(Nc1nc2cc(O)ccc2s1)c1ccccn1 50
O=C(Nc1nc2ccc(O)cc2s1)c1ccncc1 67
O=C(Nc1nc2ccc(O)cc2s1)c1ccccn1 74
CC(=O)Nc1nc2cc(C)ccc2s1 83
O=C(Nc1nc2cc(O)ccc2s1)c1ccncc1 92

Okay, here is my list. What is residual kinase activity, MAP4K5 for each of these?
1. O=C(Nc1nc2cc(O)ccc2s1)c1cccnc1
2. O=C(Nc1nc2ccc(O)cc2s1)c1cccnc1
3. CC(=O)Nc1nc2ccccc2s1
4. O=C(Nc1nc2ccc(O)cc2s1)c1ccccc1

1: 58; 2: 81; 3: 95; 4: 31

---

tgt: CAMK1 (Homo sapiens)
Sequence (Q14012 whole entry, species assumed): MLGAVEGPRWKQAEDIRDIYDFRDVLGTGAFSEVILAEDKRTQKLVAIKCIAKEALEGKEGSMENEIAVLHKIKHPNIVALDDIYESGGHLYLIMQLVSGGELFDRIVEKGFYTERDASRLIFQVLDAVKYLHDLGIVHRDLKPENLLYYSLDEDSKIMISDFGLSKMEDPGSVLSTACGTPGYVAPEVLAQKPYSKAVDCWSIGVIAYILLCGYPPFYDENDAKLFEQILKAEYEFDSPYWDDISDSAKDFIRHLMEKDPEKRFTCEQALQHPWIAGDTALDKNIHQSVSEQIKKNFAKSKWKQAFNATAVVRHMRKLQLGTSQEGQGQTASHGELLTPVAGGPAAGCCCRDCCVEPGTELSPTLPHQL
method: Kinase profiling CAMK1
Type: biochemical
applied_conditions: 100 micromolar inhibitor concentration; 100 is no change
attribute_measured: residual kinase activity, CAMK1
Numbers only.

Worked set:
O=C(Nc1nc2ccc(O)cc2s1)c1cccnc1 42
COc1ccc2sc(NC(=O)c3ccccc3)nc2c1 76
O=C(Nc1nc2ccc(C(F)(F)F)cc2s1)c1ccccc1 84
O=C(Nc1nc2ccc(O)cc2s1)c1ccccn1 47

# input for lookup
Sample O=C(Nc1nc2cc(O)ccc2s1)c1cccnc1 , system: CAMK1 (Homo sapiens). Its residual kinase activity, CAMK1 is 104

---

tgt: PRK2 (Homo sapiens, UniProt Q16513)
method: Kinase profiling PRK2
Format: biochemical
applied_conditions: 100 micromolar inhibitor concentration; 100 is no change; read-out: residual kinase activity, PRK2
Just a reminder that ties go to NO: only remaining activity at 100 µM strictly below 70% counts as YES.

Find out if reported remaining activity at 100 µM for CC(=O)Nc1nc2cc(C(F)(F)F)ccc2s1 is less than 70%
NO

Find out if reported remaining activity at 100 µM for CC(=O)Nc1nc2ccc([N+](=O)[O-])cc2s1 is less than 70%
NO

---

tgt: SRPK1 (Homo sapiens)
Sequence (Q96SB4 whole entry, species assumed): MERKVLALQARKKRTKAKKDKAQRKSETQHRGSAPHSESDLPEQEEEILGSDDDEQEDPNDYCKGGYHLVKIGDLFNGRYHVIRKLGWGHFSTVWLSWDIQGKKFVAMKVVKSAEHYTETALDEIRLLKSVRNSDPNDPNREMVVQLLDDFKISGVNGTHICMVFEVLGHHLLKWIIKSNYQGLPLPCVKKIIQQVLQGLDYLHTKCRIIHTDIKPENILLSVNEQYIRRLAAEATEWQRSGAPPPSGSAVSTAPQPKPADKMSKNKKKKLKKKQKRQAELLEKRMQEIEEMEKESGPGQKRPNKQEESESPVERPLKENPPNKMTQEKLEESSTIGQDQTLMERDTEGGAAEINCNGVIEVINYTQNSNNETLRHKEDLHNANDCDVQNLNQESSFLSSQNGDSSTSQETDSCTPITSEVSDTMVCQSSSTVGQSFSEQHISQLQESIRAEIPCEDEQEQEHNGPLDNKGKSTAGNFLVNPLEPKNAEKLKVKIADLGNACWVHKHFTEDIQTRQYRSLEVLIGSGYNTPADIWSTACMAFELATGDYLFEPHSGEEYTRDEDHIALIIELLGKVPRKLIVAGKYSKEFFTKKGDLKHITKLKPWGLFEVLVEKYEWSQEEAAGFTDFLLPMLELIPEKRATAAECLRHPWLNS
method: Kinase profiling SRPK1
Type: biochemical
applied_conditions: 100 micromolar inhibitor concentration; 100 is no change
attribute_measured: residual kinase activity, SRPK1
Numbers only.

Worked set:
molecule	attribute_measured	value_observed
O=C(Nc1nc2cc(O)ccc2s1)c1cccnc1 [Compound 03-33]	residual kinase activity, SRPK1	58
O=C(Nc1nc2ccc(O)cc2s1)c1ccncc1 [Compound 08-42]	residual kinase activity, SRPK1	19
O=C(Nc1nc2ccc(O)cc2s1)c1ccccn1 [Compound 03-12]	residual kinase activity, SRPK1	63

# input for lookup
Form: molecule = O=C(Nc1nc2ccc(C(F)(F)F)cc2s1)c1ccccc1 [Compound 03-99] ; residual kinase activity, SRPK1 = 61
